Test system: CCRIS mutagenicity, Ames/micronucleus/aberration tests
Assay: CCRIS mutagenicity studies
Details: Test System: AMES SALMONELLA TYPHIMURIUM; Strain/Indicator: TA100; Metabolic Activation: RAT, LIVER, S-9, PCB; Method: PREINCUBATION
The source made the active and inactive calls. How the calls were made is not given here.
Assign a class; possible classes are active, inactive

Cc1c(C(C)C)c(=O)n(-c2ccccc2)n1C    inactive

**Query** Dear colleague, could you share the recorded outcome for COC(=O)[C@H](C)Cl when you have a moment?
**Result** inactive

**Query** Try the compound [N-]=[N+]=NC[C@@H](CO)Cc1ccccc1
**Result** active

**Query** Try the compound Nc1nc(-c2ccc([N+](=O)[O-])cc2)nc2c1ncn2-c1ccc([N+](=O)[O-])cc1
**Result** active

**Query** Try the compound CCCCN(C[C@@H](CO)Cc1ccccc1)N=O
**Result** active

**Query** Try the compound Cc1cc(O)c2c(c1)C(=O)c1cccc(O)c1C2=O
**Result** inactive

====

Tested on: CCRIS mutagenicity, Ames/micronucleus/aberration tests
Test: CCRIS mutagenicity studies
Details: Test System: AMES SALMONELLA TYPHIMURIUM; Strain/Indicator: TA98; Metabolic Activation: RAT, LIVER, S-9, AROCLOR 1254; Method: STANDARD PLATE
From the text: The CCRIS database contains chemical records with carcinogenicity, mutagenicity, tumor promotion, and tumor inhibition test results. It was developed by the National Cancer Institute (NCI). Data are derived from studies cited in primary journals, current awareness tools, NCI reports, and other sources. Test results have been reviewed by experts in carcinogenesis and mutagenesis. CCRIS provides historical information from the years 1985 - 2011. It is no longer updated. […]
The source made the active and inactive calls. How the calls were made is not given here.
PARAMETER_MEASURED: mutagenic call

Some compounds with known mutagenic call results, for comparison:
CC(C)(C)NC[C@H](O)COc1nsnc1N1CCOCC1    inactive; negative
CSCCC(NC(=O)COc1cc(Cl)c(Cl)cc1Cl)C(=O)O (stereo not drawn)    inactive; negative
Cc1nc2c(ccc3ccc4ccc(O)cc4c32)[nH]1    active; positive
ClCC1CO1 (stereo not drawn)    inactive; negative
CCCCCON=O    inactive; negative

**Query** Requested read-out: mutagenic call. Entry: C=C(C)C(=O)OCCCC
**Result** inactive; negative

**Query** Try the compound C=CCc1ccc(O)c(O)c1
**Result** inactive; negative

**Query** Try the compound C#C[C@]1(O)CC[C@H]2[C@@H]3CCC4=CC(=O)CC[C@@H]4[C@H]3CC[C@@]21CC
**Result** inactive; negative

**Query** Try the compound CN1CCC(=C2c3ccccc3C=Cc3ccccc32)CC1
**Result** inactive; negative

**Query** Try the compound Oc1cc2ccccc2c2ccc3ccccc3c12
**Result** inactive; negative

**Query** Try the compound NNc1nnc(NN)c2ccccc12
**Result** active; positive

**Query** Try the compound O=C/C=C/C=C\c1ccc([N+](=O)[O-])cc1
**Result** active; positive

**Query** Try the compound Nc1ccc2nc3ccccn3c2n1
**Result** active; positive

**Query** Try the compound Nc1cccc2c1C(=O)c1cccc(N)c1C2=O
**Result** active; positive

**Query** Try the compound Nc1ccc(F)cc1
**Result** active; positive

**Query** Try the compound O=c1c(O)c(C2=CC(O)(CCO)C(O)(CCO)C=C2)oc2c1C(O)=CC(O)(CCO)C2 (stereo not drawn)
**Result** inactive; negative
